Data provenance: the supplement of paper PMC6757056

B1: library; a variant is named by its letters at N, in order (parent)
chain: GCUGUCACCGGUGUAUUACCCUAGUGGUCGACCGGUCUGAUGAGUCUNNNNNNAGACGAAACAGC

Variants of: B1
Test: normalized RNA/DNA level without ligand (relative to sTRSVctl = 100) (log10 (% of sTRSVctl)); ligand: hypoxanthine (xanthine aptamer); higher = less ribozyme self-cleavage, higher mRNA level
Settings: HEK293T, reporter: mCherry (pCS4076), ligand present: no
MEASUREMENT LABEL: normalized RNA/DNA level without ligand (log10)

[
  {
    "QUERY SEQUENCE": "GCUGUCACCGGUGUAUUACCCUAGUGGUCGACCGGUCUGAUGAGUCUCAGUUGAGACGAAACAGC",
    "REPORTED MEASUREMENT": 1.8
  },
  {
    "QUERY SEQUENCE": "GCUGUCACCGGUGUAUUACCCUAGUGGUCGACCGGUCUGAUGAGUCUCUAUACAGACGAAACAGC",
    "REPORTED MEASUREMENT": 1.84
  },
  {
    "QUERY SEQUENCE": "GCUGUCACCGGUGUAUUACCCUAGUGGUCGACCGGUCUGAUGAGUCUUGCUGAAGACGAAACAGC",
    "REPORTED MEASUREMENT": 1.68
  },
  {
    "QUERY SEQUENCE": "GCUGUCACCGGUGUAUUACCCUAGUGGUCGACCGGUCUGAUGAGUCUCGGUGAAGACGAAACAGC",
    "REPORTED MEASUREMENT": 1.57
  },
  {
    "QUERY SEQUENCE": "GCUGUCACCGGUGUAUUACCCUAGUGGUCGACCGGUCUGAUGAGUCUAUGGGGAGACGAAACAGC",
    "REPORTED MEASUREMENT": 1.4
  },
  {
    "QUERY SEQUENCE": "GCUGUCACCGGUGUAUUACCCUAGUGGUCGACCGGUCUGAUGAGUCUGCACAGAGACGAAACAGC",
    "REPORTED MEASUREMENT": 1.45
  },
  {
    "QUERY SEQUENCE": "GCUGUCACCGGUGUAUUACCCUAGUGGUCGACCGGUCUGAUGAGUCUCGCGAGAGACGAAACAGC",
    "REPORTED MEASUREMENT": 1.67
  },
  {
    "QUERY SEQUENCE": "GCUGUCACCGGUGUAUUACCCUAGUGGUCGACCGGUCUGAUGAGUCUCCUUCUAGACGAAACAGC",
    "REPORTED MEASUREMENT": 1.95
  },
  {
    "QUERY SEQUENCE": "GCUGUCACCGGUGUAUUACCCUAGUGGUCGACCGGUCUGAUGAGUCUUGGGUGAGACGAAACAGC",
    "REPORTED MEASUREMENT": 1.73
  },
  {
    "QUERY SEQUENCE": "GCUGUCACCGGUGUAUUACCCUAGUGGUCGACCGGUCUGAUGAGUCUCGCGGCAGACGAAACAGC",
    "REPORTED MEASUREMENT": 1.92
  },
  {
    "QUERY SEQUENCE": "GCUGUCACCGGUGUAUUACCCUAGUGGUCGACCGGUCUGAUGAGUCUAAAUUUAGACGAAACAGC",
    "REPORTED MEASUREMENT": 1.9
  },
  {
    "QUERY SEQUENCE": "GCUGUCACCGGUGUAUUACCCUAGUGGUCGACCGGUCUGAUGAGUCUAAUGAAAGACGAAACAGC",
    "REPORTED MEASUREMENT": 1.71
  },
  {
    "QUERY SEQUENCE": "GCUGUCACCGGUGUAUUACCCUAGUGGUCGACCGGUCUGAUGAGUCUGCUCACAGACGAAACAGC",
    "REPORTED MEASUREMENT": 1.84
  },
  {
    "QUERY SEQUENCE": "GCUGUCACCGGUGUAUUACCCUAGUGGUCGACCGGUCUGAUGAGUCUGCGCGAAGACGAAACAGC",
    "REPORTED MEASUREMENT": 1.51
  },
  {
    "QUERY SEQUENCE": "GCUGUCACCGGUGUAUUACCCUAGUGGUCGACCGGUCUGAUGAGUCUUCAAAGAGACGAAACAGC",
    "REPORTED MEASUREMENT": 1.68
  },
  {
    "QUERY SEQUENCE": "GCUGUCACCGGUGUAUUACCCUAGUGGUCGACCGGUCUGAUGAGUCUGAUAUUAGACGAAACAGC",
    "REPORTED MEASUREMENT": 1.84
  },
  {
    "QUERY SEQUENCE": "GCUGUCACCGGUGUAUUACCCUAGUGGUCGACCGGUCUGAUGAGUCUAGGUGAAGACGAAACAGC",
    "REPORTED MEASUREMENT": 1.46
  },
  {
    "QUERY SEQUENCE": "GCUGUCACCGGUGUAUUACCCUAGUGGUCGACCGGUCUGAUGAGUCUGCCCACAGACGAAACAGC",
    "REPORTED MEASUREMENT": 1.76
  },
  {
    "QUERY SEQUENCE": "GCUGUCACCGGUGUAUUACCCUAGUGGUCGACCGGUCUGAUGAGUCUCGCUGUAGACGAAACAGC",
    "REPORTED MEASUREMENT": 1.94
  },
  {
    "QUERY SEQUENCE": "GCUGUCACCGGUGUAUUACCCUAGUGGUCGACCGGUCUGAUGAGUCUCCAGACAGACGAAACAGC",
    "REPORTED MEASUREMENT": 1.88
  },
  {
    "QUERY SEQUENCE": "GCUGUCACCGGUGUAUUACCCUAGUGGUCGACCGGUCUGAUGAGUCUUACGACAGACGAAACAGC",
    "REPORTED MEASUREMENT": 1.8
  },
  {
    "QUERY SEQUENCE": "GCUGUCACCGGUGUAUUACCCUAGUGGUCGACCGGUCUGAUGAGUCUUCCGCAAGACGAAACAGC",
    "REPORTED MEASUREMENT": 1.81
  },
  {
    "QUERY SEQUENCE": "GCUGUCACCGGUGUAUUACCCUAGUGGUCGACCGGUCUGAUGAGUCUACCGAUAGACGAAACAGC",
    "REPORTED MEASUREMENT": 1.67
  },
  {
    "QUERY SEQUENCE": "GCUGUCACCGGUGUAUUACCCUAGUGGUCGACCGGUCUGAUGAGUCUUCUGCUAGACGAAACAGC",
    "REPORTED MEASUREMENT": 1.92
  },
  {
    "QUERY SEQUENCE": "GCUGUCACCGGUGUAUUACCCUAGUGGUCGACCGGUCUGAUGAGUCUCUCGCUAGACGAAACAGC",
    "REPORTED MEASUREMENT": 1.92
  },
  {
    "QUERY SEQUENCE": "GCUGUCACCGGUGUAUUACCCUAGUGGUCGACCGGUCUGAUGAGUCUAAAAUAAGACGAAACAGC",
    "REPORTED MEASUREMENT": 1.78
  },
  {
    "QUERY SEQUENCE": "GCUGUCACCGGUGUAUUACCCUAGUGGUCGACCGGUCUGAUGAGUCUUUCUGAAGACGAAACAGC",
    "REPORTED MEASUREMENT": 1.83
  },
  {
    "QUERY SEQUENCE": "GCUGUCACCGGUGUAUUACCCUAGUGGUCGACCGGUCUGAUGAGUCUCUCUGCAGACGAAACAGC",
    "REPORTED MEASUREMENT": 1.88
  },
  {
    "QUERY SEQUENCE": "GCUGUCACCGGUGUAUUACCCUAGUGGUCGACCGGUCUGAUGAGUCUAUGCGGAGACGAAACAGC",
    "REPORTED MEASUREMENT": 1.31
  },
  {
    "QUERY SEQUENCE": "GCUGUCACCGGUGUAUUACCCUAGUGGUCGACCGGUCUGAUGAGUCUAGCUAUAGACGAAACAGC",
    "REPORTED MEASUREMENT": 1.83
  },
  {
    "QUERY SEQUENCE": "GCUGUCACCGGUGUAUUACCCUAGUGGUCGACCGGUCUGAUGAGUCUCUGAAAAGACGAAACAGC",
    "REPORTED MEASUREMENT": 1.74
  },
  {
    "QUERY SEQUENCE": "GCUGUCACCGGUGUAUUACCCUAGUGGUCGACCGGUCUGAUGAGUCUGACCACAGACGAAACAGC",
    "REPORTED MEASUREMENT": 1.84
  },
  {
    "QUERY SEQUENCE": "GCUGUCACCGGUGUAUUACCCUAGUGGUCGACCGGUCUGAUGAGUCUAUAUCGAGACGAAACAGC",
    "REPORTED MEASUREMENT": 1.44
  },
  {
    "QUERY SEQUENCE": "GCUGUCACCGGUGUAUUACCCUAGUGGUCGACCGGUCUGAUGAGUCUUCGUCAAGACGAAACAGC",
    "REPORTED MEASUREMENT": 1.81
  },
  {
    "QUERY SEQUENCE": "GCUGUCACCGGUGUAUUACCCUAGUGGUCGACCGGUCUGAUGAGUCUGUGCCCAGACGAAACAGC",
    "REPORTED MEASUREMENT": 1.82
  },
  {
    "QUERY SEQUENCE": "GCUGUCACCGGUGUAUUACCCUAGUGGUCGACCGGUCUGAUGAGUCUGACGCGAGACGAAACAGC",
    "REPORTED MEASUREMENT": 1.51
  },
  {
    "QUERY SEQUENCE": "GCUGUCACCGGUGUAUUACCCUAGUGGUCGACCGGUCUGAUGAGUCUUAUGCCAGACGAAACAGC",
    "REPORTED MEASUREMENT": 1.87
  },
  {
    "QUERY SEQUENCE": "GCUGUCACCGGUGUAUUACCCUAGUGGUCGACCGGUCUGAUGAGUCUUCCUCAAGACGAAACAGC",
    "REPORTED MEASUREMENT": 1.88
  },
  {
    "QUERY SEQUENCE": "GCUGUCACCGGUGUAUUACCCUAGUGGUCGACCGGUCUGAUGAGUCUGACAGGAGACGAAACAGC",
    "REPORTED MEASUREMENT": 1.27
  },
  {
    "QUERY SEQUENCE": "GCUGUCACCGGUGUAUUACCCUAGUGGUCGACCGGUCUGAUGAGUCUCUGAAUAGACGAAACAGC",
    "REPORTED MEASUREMENT": 1.74
  }
]
